Just for reference, ChEMBL document CHEMBL3774306 is where these values come from.

- protocol.details: Binding affinity to biotin labelled 5'-CATATATATCCCCATATATATG-3' hairpin dsDNA (unknown origin) immobilized on streptavidin-derivatized gold chip incubated for 5 mins followed by dissociation period of 5 mins by surface plasmon resonance analysis
- Set-up: species or system Homo sapiens
measurement.type: Kd (µM)
API: value field is a number in µM; no unit string.

Given the entry c1cc(NC2=NCCN2)cc(Nc2ccc(NC3=NCCN3)cc2)c1 , report its measured Kd. 2.17

----------
- Organism: Homo sapiens
- protocol.details: Ratio of primary binding constant to secondary binding constant for biotin labelled 5'-CGAATTCGTCTCCGAATTCG-3' hairpin dsDNA (unknown origin) immobilized on biosensor chip by surface plasmon resonance analysis
Below, each entry is listed with its recorded Ratio.
Number only, please.

Solved entries:
| substance.smiles | Ratio |
| --- | --- |
| O=C(Nc1ccc(NC2=[N+]([O-])CCN2)cc1)c1ccc(NC2=[N+]([O-])CCN2)cc1 | 100 |
| O=C(Nc1ccc(NC2=NCCN2)cc1)Nc1ccc(NC2=NCCN2)cc1 | 100 |
| [O-][N+]1=C(Nc2ccc(Nc3cccc(NC4=[N+]([O-])CCN4)c3)cc2)NCC1 | 100 |

Given the entry CCO[N+]1=C(Nc2ccc(CCc3ccc(NC4=[N+](OCC)CCN4)cc3)cc2)NCC1 , report its measured Ratio. 100

Same read-out for [O-][N+]1=C(Nc2ccc(CCc3ccc(NC4=[N+]([O-])CCN4)cc3)cc2)NCC1 ? 30
